Origin of the recorded values: ChEMBL document CHEMBL3085750

test: Oral bioavailability in rat at 5 mg/kg; type: ADME, organism-based; details: in vivo
PROPERTY_LABEL: bioavailability (%)
Numeric answer only, unit % assumed.

q: Return bioavailability (reported value) for this compound: Cc1cc(-c2ccc(NC(=O)[C@H](C)c3cc(C(F)(F)F)cc(C(F)(F)F)c3)cc2)ccn1
a: 100

###

target: Cytochrome P450 3A4 (Homo sapiens); assay: Inhibition of CYP3A4 (unknown origin) after 5 mins; format: ADME
Sequence (P08684 whole entry): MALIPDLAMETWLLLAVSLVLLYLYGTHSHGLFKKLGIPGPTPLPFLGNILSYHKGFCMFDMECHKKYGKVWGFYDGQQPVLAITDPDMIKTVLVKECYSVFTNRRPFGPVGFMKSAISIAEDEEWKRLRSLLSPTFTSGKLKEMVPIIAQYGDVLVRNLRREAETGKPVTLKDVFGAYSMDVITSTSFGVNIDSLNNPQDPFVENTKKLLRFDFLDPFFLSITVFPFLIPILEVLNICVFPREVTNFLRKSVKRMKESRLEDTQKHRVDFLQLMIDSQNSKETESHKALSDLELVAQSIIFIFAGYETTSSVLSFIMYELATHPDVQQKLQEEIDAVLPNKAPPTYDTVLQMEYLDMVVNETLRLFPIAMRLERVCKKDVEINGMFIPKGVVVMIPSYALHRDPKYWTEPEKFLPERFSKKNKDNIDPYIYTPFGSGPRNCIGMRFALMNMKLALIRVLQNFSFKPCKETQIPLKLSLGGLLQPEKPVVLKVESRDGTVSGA
PROPERTY_LABEL: IC50

q: Indicate its recorded IC50; the compound in question is Cc1noc(-c2ccc(NS(=O)(=O)c3cc(Cl)cc(Cl)c3)cc2)n1
a: > 27 µM

q: Give IC50 for the following compound: Cc1nccn1-c1ccc(NS(=O)(=O)c2cc(Cl)cc(Cl)c2)cc1
a: > 27 µM

q: Name the recorded IC50 of the compound listed here: Cc1cc(-c2ccc(NS(=O)(=O)c3cc(C(F)(F)F)cc(C(F)(F)F)c3)cc2)ccn1
a: > 27 µM

q: Given the compound Cc1cc(-c2ccc(NS(=O)(=O)c3cc(Cl)cc(Cl)c3)cc2)ccn1 , write its reported IC50.
a: 4.7 µM

###

target: Gamma-secretase; assay: Modulation of gamma-secretase in HEK293 cells expressing guinea pig Swedish mutant SFV-APP695sw assessed as inhibition of amyloid beta-42 production after 16 to 18 hrs by HTRF assay; assay type: cell-based, Homo sapiens
PROPERTY_LABEL: IC50 (nM)
Report as a plain number; the unit nM is understood.

q: For the molecule Cc1cc(-c2ccc(NC(=O)C(C)c3cccc(-c4ccc(C#N)cc4)c3)cc2)ccn1 (stereo not given) , give its reported IC50.
a: 250

q: Supply IC50 value. Item: Cc1cc(-c2ccc(NC(=O)C(C)c3ccccc3)cc2)ccn1 (stereo not given)
a: 6000

q: Provide IC50 value for the following molecule: COc1cc(NS(=O)(=O)c2ccc(Cl)c(Cl)c2)ccc1-n1cnc(C)c1
a: 900

q: Name the recorded IC50 of the item COc1cc(NS(=O)(=O)c2cc(C(F)(F)F)cc(C(F)(F)F)c2)ccc1-c1ccnc(C)c1 in your answer.
a: 530

###

Would you kindly list Kp at 2 h for each of these compounds?
experiment: Ratio of drug level in brain to plasma in mouse at 10 mg/kg, po after 2 hrs; type: ADME, organism-based; set-up: dose 10 mg/kg, route oral; conditions: read-out: BPR

q: Complete the entry with Kp at 2 h for Cc1cc(-c2ccc(NS(=O)(=O)c3cc(Cl)cc(Cl)c3)cc2)ccn1
a: 0.1

q: Hello, please tell me recorded Kp at 2 h for this one: O=S(=O)(Nc1ccc(-n2ccnc2)cc1)c1cc(Cl)cc(Cl)c1
a: 0.07

q: Fill in reported Kp at 2 h for this entry: O=S(=O)(Nc1ccc(-c2cnco2)cc1)c1cc(Cl)cc(Cl)c1
a: 0.03

q: Hello, please tell me recorded Kp at 2 h for this one: O=S(=O)(Nc1ccc(-c2ccncc2)cc1)c1cc(Cl)cc(Cl)c1
a: 0.09

q: Tell us which Kp at 2 h value is on record for O=S(=O)(Nc1ccc(-c2nnco2)cc1)c1cc(Cl)cc(Cl)c1
a: 0.16

q: Return reported Kp at 2 h. Input compound: Cc1cc(-c2ccc(NC(=O)c3cc(Cl)cc(Cl)c3)cc2)ccn1
a: 1.46
